# Tested on: brains, heart, liver, muscle, and DRG of the NHPs
# Run Description: Maturation of TTM-001 and TTM-002 capsids, NGS enrichment in NHP tissues
# Type: in vivo
# Run Conditions: NHP muscle; relative to AAV9 control
# From the text: This Example describes maturation of the AAV9 capsid variants, TTM-001 (SEQ ID NO: 981 (amino acid) and 983 (DNA), comprising SEQ ID NO: 941 (encoded by SEQ ID NO: 942)) and TTM-002 (SEQ ID NO: 982 (amino acid) and 984 (DNA), comprising SEQ ID NO: […] (encoded by SEQ ID NO: 944)) in NHPs to further enhance their transduction and biodistribution in the central nervous system as well as other tissues, and evolve the AAV capsid variants to provide further cross-species compatibility. […]
Friendly reminder: Fold Enrichment relative to AAV9, Muscle (NHP) below 0.002 fold is t, at or above is f.

See these solved cases before continuing.
Sequence Data: KTINGSGSPHSKAPSMQT
Target Entity: brains, heart, liver, muscle, and DRG of the NHPs
Assigned Category: f

Sequence Data: KTINGSGSPHSKAPSNQT
Target Entity: brains, heart, liver, muscle, and DRG of the NHPs
Assigned Category: f

Sequence Data: KNVNGSGSPHSKAQNQQT
Target Entity: brains, heart, liver, muscle, and DRG of the NHPs
Assigned Category: t

Sequence Data: KTFNGGGSPHSKAQYQQT
Target Entity: brains, heart, liver, muscle, and DRG of the NHPs
Assigned Category: t

Sequence Data: KTINGSGSPHSKAQRDIT
Target Entity: brains, heart, liver, muscle, and DRG of the NHPs
Assigned Category: f

Sequence Data: KSINGSGSPHSKAPNLQT
Target Entity: brains, heart, liver, muscle, and DRG of the NHPs
Assigned Category: t

Sequence Data: KTINGSGSPHSKAQGHHT
Target Entity: brains, heart, liver, muscle, and DRG of the NHPs
Assigned Category: t

Sequence Data: KTINGSGSPHSKAQMPNT
Target Entity: brains, heart, liver, muscle, and DRG of the NHPs
Assigned Category: f

IN: Lab note: Fold Enrichment relative to AAV9, Muscle (NHP) threshold 0.002 fold. Does this sequence come in strictly under it? KTEQVSGSPHSKAQNQQT
OUT: t

IN: Fold Enrichment relative to AAV9, Muscle (NHP) strictly < 0.002 fold for this sequence? KTDVGSGSPHSKAQNQQT
OUT: t

IN: Find out if reported Fold Enrichment relative to AAV9, Muscle (NHP) for KTINGSGSPHSKAPGQQT is less than 0.002 fold
OUT: f

IN: Determine if KTVNGSGSPHSKAQHLQT shows Fold Enrichment relative to AAV9, Muscle (NHP) strictly lower than 0.002 fold.
OUT: t

IN: Hello, is Fold Enrichment relative to AAV9, Muscle (NHP) of the following sequence strictly smaller than 0.002 fold? KTIDGSGSPHSKALNKQT
OUT: t

IN: hey, is Fold Enrichment relative to AAV9, Muscle (NHP) for KTINGSGSPHSKALMRQT lower than 0.002 fold or not?
OUT: f

IN: Problem: For the sequence KTNNGGGSPHSKAQNLQT , is Fold Enrichment relative to AAV9, Muscle (NHP) under 0.002 fold?
OUT: t

IN: Below 0.002 fold on Fold Enrichment relative to AAV9, Muscle (NHP)? Entry KTDVKSGSPHSKAQNQQT
OUT: t

* * *

# System: brains, heart, liver, muscle, and DRG of the NHPs
# Run Description: Maturation of TTM-001 and TTM-002 capsids, NGS enrichment in NHP tissues
# Assay type: in vivo
# Run Conditions: NGS fold-enrichment, NHP liver RNA, relative to AAV9 control
# maps each entry to its Fold Enrichment relative to AAV9, Liver RNA (NHP)

Sequence Data: KTSSGSGSPHSKAQYQQT
Measured Result: 0.000 fold
--
Sequence Data: KAINGHDSPHKSEKNQQT
Measured Result: 0.000 fold
--
Sequence Data: KNTNGSGSPHSKAQNQQT
Measured Result: 0.571 fold

IN: Please tell me: Fold Enrichment relative to AAV9, Liver RNA (NHP) of KTIEGHDSPHKSGRNQQT , system brains, heart, liver, muscle, and DRG of the NHPs?
OUT: 0.000 fold

IN: Item: KTVNGSGSPHSKAQNQLI Test system: brains, heart, liver, muscle, and DRG of the NHPs Read-out: Fold Enrichment relative to AAV9, Liver RNA (NHP) Value: ?
OUT: 0.000 fold

IN: Lab request: please report Fold Enrichment relative to AAV9, Liver RNA (NHP) under test system brains, heart, liver, muscle, and DRG of the NHPs for KTFPGSGSPHSKVQNQQT
OUT: 0.000 fold

IN: Reported Fold Enrichment relative to AAV9, Liver RNA (NHP) for brains, heart, liver, muscle, and DRG of the NHPs, given KTINGSGSPHGWVQNQQT ?
OUT: 1.240 fold

IN: Query Fold Enrichment relative to AAV9, Liver RNA (NHP) on brains, heart, liver, muscle, and DRG of the NHPs for KTINGHDSPHKSGQLVIT
OUT: 0.338 fold

IN: Kindly state the measured Fold Enrichment relative to AAV9, Liver RNA (NHP) obtained for KTVNGHDSPHKSRQSQQT with brains, heart, liver, muscle, and DRG of the NHPs.
OUT: 0.000 fold

* * *

# System: brain, spinal cord, and DRG of the NHPs
# Run Description: NGS fold enrichment of synthetic library (passage 3) in NHPs, first cross-species screen
# Type: in vivo, cynomolgus macaques (Macaca fascicularis)
# Run Conditions: synthetic library passage 3, intravenous, RNA from spinal cord of NHPs, NGS, relative to wild-type AAV9
# Fold enrichment over AAV9 in the spinal cord of NHPs per entry
Numeric only. Scale: fold

IN: Need Fold enrichment over AAV9 in the spinal cord of NHPs of GPAQHGTSGQNQQT , thanks.
OUT: 0.866

IN: Fill blank: measured Fold enrichment over AAV9 in the spinal cord of NHPs of the sequence GCTTRLNSGQNQQT is ____.
OUT: 0.000

IN: Endpoint output: Fold enrichment over AAV9 in the spinal cord of NHPs of GNSQVKVSGQNQQT . Value?
OUT: 4.930

* * *

# System: brain
# Run Description: NGS fold enrichment of synthetic library (passage 3) in BALB/c mice, first cross-species screen
# Type: in vivo
# Run Conditions: synthetic library passage 3, intravenous, RNA from brain of BALB/c mice, NGS, relative to wild-type AAV9
Measured Fold enrichment over AAV9 in the brain of Mice (BALB/c) of individual entries

Sequence Data: GPDRIGSSGQNQQT
Target Entity: brain
Measured Result: 0.342 fold
--
Sequence Data: GSGQNQQTSVSQQT
Target Entity: brain
Measured Result: 0.913 fold

IN: # query: Fold enrichment over AAV9 in the brain of Mice (BALB/c) of entry GAFHLAASGQNQQT
OUT: 0.775 fold

IN: What Fold enrichment over AAV9 in the brain of Mice (BALB/c) value was documented for this sequence, GSGQLGLSVTNQQT ?
OUT: 0.376 fold

* * *

# Tested on: brains, heart, liver, muscle, and DRG of the NHPs
# Run Description: Maturation of TTM-001 and TTM-002 capsids, NGS enrichment in NHP tissues
# Assay type: in vivo
# Run Conditions: NHP liver, DNA; relative to AAV9 control
sequences and their reported Fold Enrichment relative to AAV9, Liver DNA (NHP)
Give the value, in units of fold, as a plain number.

Record excerpt, results attached:
Sequence Data: KSEKGSGSPHSKAQNQQT
Output Unit: fold
Measured Result: 0.059

Sequence Data: KTINGSGSPHSKLQKQQT
Output Unit: fold
Measured Result: 0.429

Sequence Data: KTINGSGSPHSKAQIGHT
Output Unit: fold
Measured Result: 0.154

Sequence Data: KTINGSGSPHSKAQVQQI
Output Unit: fold
Measured Result: 0.113

Sequence Data: KEFVGSGSPHSKAQNQQT
Output Unit: fold
Measured Result: 0.326

IN: # query: Fold Enrichment relative to AAV9, Liver DNA (NHP) of entry KTDVGSGSPHSKAQNQQT
OUT: 0.560

IN: Give its Fold Enrichment relative to AAV9, Liver DNA (NHP) value. Item: KTVNGGGSPHSKSQNQQT
OUT: 0.040

IN: Recorded Fold Enrichment relative to AAV9, Liver DNA (NHP) for KTDVKSGSPHSKAQNQQT , please?
OUT: 0.224

IN: # lookup: Fold Enrichment relative to AAV9, Liver DNA (NHP) of KTVNGNGSPHSKSQNQQT
OUT: 0.168

* * *

# Test system: brains, heart, liver, muscle, and DRG of the NHPs
# Run Description: Maturation of TTM-001 and TTM-002 capsids, NGS enrichment in NHP tissues
# Type: in vivo
# Run Conditions: NGS fold-enrichment, NHP heart, relative to AAV9 control
Property Label: Fold Enrichment relative to AAV9, Heart (NHP) (fold)
The response must be a number in fold with no trailing unit.

Field: example entries. Status: answers known.
Sequence Data: KTINGGGSPHSKALNQQN
Target Entity: brains, heart, liver, muscle, and DRG of the NHPs
Output Unit: fold
Measured Result: 0.131
//
Sequence Data: KTINAHDSPHKIGQNHQT
Target Entity: brains, heart, liver, muscle, and DRG of the NHPs
Output Unit: fold
Measured Result: 0.121
//
Sequence Data: KTITGHDSPHKSGQNQWT
Target Entity: brains, heart, liver, muscle, and DRG of the NHPs
Output Unit: fold
Measured Result: 0.090

IN: What measured Fold Enrichment relative to AAV9, Heart (NHP) goes with KTDNGSGSPHSKAHNQQT ?
OUT: 0.000

IN: Consider the sequence KTINGHDSPHKTGQNQPP and give its measured Fold Enrichment relative to AAV9, Heart (NHP).
OUT: 0.149

IN: Item KAINGSGSPHSKAQNLAT has what recorded Fold Enrichment relative to AAV9, Heart (NHP)?
OUT: 10.954

Value source: patent US20260250318A1
